- TARGET OF ASSAY: rNHE3 (Rattus norvegicus, UniProt P26433)
- Sequence (P26433 29-831): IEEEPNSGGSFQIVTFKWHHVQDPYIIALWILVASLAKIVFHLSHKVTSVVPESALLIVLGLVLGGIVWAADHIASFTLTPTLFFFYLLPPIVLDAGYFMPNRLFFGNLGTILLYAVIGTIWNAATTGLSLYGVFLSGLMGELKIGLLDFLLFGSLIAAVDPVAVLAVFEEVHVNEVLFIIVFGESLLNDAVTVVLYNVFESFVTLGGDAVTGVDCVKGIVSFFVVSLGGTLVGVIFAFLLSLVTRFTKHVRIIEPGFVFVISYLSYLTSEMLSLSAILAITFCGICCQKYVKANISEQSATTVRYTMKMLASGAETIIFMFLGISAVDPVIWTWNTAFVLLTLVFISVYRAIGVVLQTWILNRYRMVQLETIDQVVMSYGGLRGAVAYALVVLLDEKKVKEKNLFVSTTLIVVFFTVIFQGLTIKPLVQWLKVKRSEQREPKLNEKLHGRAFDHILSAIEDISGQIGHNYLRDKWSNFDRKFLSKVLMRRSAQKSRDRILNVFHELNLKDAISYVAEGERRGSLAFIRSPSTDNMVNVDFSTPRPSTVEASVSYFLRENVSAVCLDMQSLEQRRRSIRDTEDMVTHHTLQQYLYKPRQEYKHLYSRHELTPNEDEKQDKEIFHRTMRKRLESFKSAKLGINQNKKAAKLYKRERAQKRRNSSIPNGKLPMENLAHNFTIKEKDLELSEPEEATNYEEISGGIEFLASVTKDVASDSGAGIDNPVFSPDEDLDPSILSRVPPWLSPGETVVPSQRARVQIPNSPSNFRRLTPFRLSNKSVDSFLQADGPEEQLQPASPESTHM
- EXPERIMENTAL PROTOCOL: recovery of intracellular pH (pHi) after acidification, BCECF fluorescence
- Format: cell-based
- CONDITION PARAMETERS: pH recovery recorded for three minutes; read-out: IC50 [μM], (rNHE3)
Where a name gives a salt, the structure may show the parent alone.

[
  {
    "COMPOUND": "Cl.FC(F)(F)c1cccc(Cl)c1N=C1N[C@H]2CCCC[C@@H]2N1 (relative stereo) [Example 5, hydrochloride]",
    "TARGET OF ASSAY": "rNHE3 (Rattus norvegicus, UniProt P26433)",
    "IC50 / µM": 19
  },
  {
    "COMPOUND": "CC(C)[C@@H]1NC(=Nc2c(Cl)cccc2Cl)N[C@H]1C(C)C (racemic) [Example 7, hydrochloride]",
    "TARGET OF ASSAY": "rNHE3 (Rattus norvegicus, UniProt P26433)",
    "IC50 / µM": 1.1
  }
]
